- assay.details: viability of HCT116 without oncogenic beta-catenin – human colon tumor cells, pilot screen (AID 823)
- experimental.parameters: HCT116 beta-catenin knockout viability, CellTiter-Glo, 60 h; at 10 µM
Inconclusive results are not listed. Activity calls are given as the source filed them.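 How the source made its calls: active means cell viability at or below a set limit in both duplicate runs, the limit being the all-compound median minus 4 SD (cut at about 23% in these data, passing the limit was not always enough); inconclusive means no clear call, values can overlap the other calls; inactive means the rest.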
Return exactly one item of true for active, false for inactive

| molecule | class.name |
| --- | --- |
| O=P(c1ccccc1)(c1ccccc1)C1CCCO1 (stereo not drawn) | false |
| CC1CN(Cc2nc3c(c(=O)n(C)c(=O)n3C)n2Cc2cccc(Cl)c2)CC(C)O1 (stereo not drawn) | false |
| COc1ccccc1N(CC(O)CN1C(=O)NC(C)(C)C1=O)S(=O)(=O)c1ccc(C)cc1 (stereo not drawn) | false |
| N#Cc1cnc2sc3ccccc3n2c1=N | false |
| O=C(O)CC(NC(=O)c1ccccc1NC(=O)c1ccccc1)C(=O)O (stereo not drawn) | false |
| CC1(C)Cc2c(sc3c2c(=N)n(Cc2ccco2)c(=O)n3Cc2ccc(Cl)cc2)CO1 | false |
| COc1ccc(NC(=O)C2Cc3ccccc3C(=O)O2)cc1 (stereo not drawn) | false |
| O=C(NC1CCCC1)C1CCCN(S(=O)(=O)c2cccc3cccnc23)C1 (stereo not drawn) | false |
| CN(C(=O)c1ccco1)c1nnc(C23CC4CC(CC(C4)C2)C3)s1 | false |
| Cn1c(C(=O)Nc2ccc3c(c2)OCO3)cc2c(=O)n(C)c3ccccc3c21 | false |

[ask] // outcome(item) with item = Cc1cccn2c(=O)c3cc(C(=O)NCCN4CCOCC4)c(=N)n(CCc4ccccc4)c3nc12
[reply] true

[ask] Item: COC(=O)c1ccc(-n2nnnc2SCc2nn[nH]n2)cc1
[reply] false

[ask] Item: COc1ccc(-c2nc(CS(=O)CC(=O)NCc3ccccn3)c(C)o2)cc1 (stereo not drawn)
[reply] false
